B1: VH:VL chains; a variant is named by its letters at X, in order (parent)
chain 1: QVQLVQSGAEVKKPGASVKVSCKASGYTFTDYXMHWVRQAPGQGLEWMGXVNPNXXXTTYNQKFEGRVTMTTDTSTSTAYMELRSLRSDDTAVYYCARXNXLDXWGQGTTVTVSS
chain 2: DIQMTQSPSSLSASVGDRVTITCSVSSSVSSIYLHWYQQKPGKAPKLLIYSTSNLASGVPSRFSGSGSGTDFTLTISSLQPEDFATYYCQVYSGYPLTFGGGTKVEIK

variants of: B1; experiment: yeast display scFab, FACS + sequencing
measured.attribute: non-specific binding call

Some solved entries appear below for comparison.
YAAGSSWD : binds
FAKRGAWS : binds
YAGRGFGF : binds
DEGGTDSF : no binding
VRRGSDGV : no binding

Exercise: Using the record for DREEGAGV , state its measured non-specific binding call.
Solution: no binding

Exercise: Using the record for YRRGASWD , state its measured non-specific binding call.
Solution: binds

Exercise: Using the record for FAGRDAVV , state its measured non-specific binding call.
Solution: binds

Exercise: Using the record for YKGKGFAA , state its measured non-specific binding call.
Solution: binds

Exercise: Using the record for STKAASWV , state its measured non-specific binding call.
Solution: no binding

Exercise: Using the record for YRGKDAAY , state its measured non-specific binding call.
Solution: binds
